B1: HDV Ribozyme (parent)
chain: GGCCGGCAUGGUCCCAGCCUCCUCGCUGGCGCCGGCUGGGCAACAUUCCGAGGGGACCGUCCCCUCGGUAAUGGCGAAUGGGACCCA

- Variants of: B1
- ASSAY NOTES: self-cleavage, relative activity (ratio to wild type); higher = more cleavage; co-transcriptional
The entries below are paired with their reported self-cleavage.

INSERT INTO assay_data (mutation_list, assay_endpoint, readout_value) VALUES
  ('C62A C64G', 'self-cleavage', 0.142),
  ('C48U G54C', 'self-cleavage', 1.2),
  ('U20C G67A', 'self-cleavage', 0.17),
  ('C64A C75G', 'self-cleavage', 0.18),
  ('A8U C86G', 'self-cleavage', 0.554);

Looking up C22A C62G , I found its self-cleavage recorded as 0.212
